The entries below come with measured IC50 values attached.
measuredTarget: TbPTR1 (Trypanosoma brucei brucei, UniProt O76290)
Sequence (O76290 1-268): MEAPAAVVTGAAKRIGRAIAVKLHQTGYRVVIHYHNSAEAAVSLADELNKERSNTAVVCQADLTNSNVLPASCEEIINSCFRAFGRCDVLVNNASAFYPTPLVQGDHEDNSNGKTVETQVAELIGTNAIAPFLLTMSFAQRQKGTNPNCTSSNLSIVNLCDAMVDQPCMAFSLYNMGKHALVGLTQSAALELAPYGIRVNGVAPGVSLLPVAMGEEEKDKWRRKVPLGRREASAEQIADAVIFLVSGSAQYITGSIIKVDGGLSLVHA
assayComment: Spectrophotometric inhibition assay with recombinant TbPTR1
Type: biochemical
Supply the numeric figure in µM, leaving out any unit text.

1) C=C1C(=O)O[C@@H]2/C=C(/CO)C3=CC(=O)[C@@](C)(C[C@@H](OC(=O)/C(C)=C\C)[C@@H]12)O3
30.5

Exercise: # get_value(readout='IC50', item= C=C(CO)C(=O)O[C@H]1CC(=C)[C@@H]2C[C@H](O)C(=C)[C@@H]2[C@H]2OC(=O)C(=C)[C@@H]21 )
Solution: 12.4
